Target: T1, CD79b on the surface of B-cell non-Hodgkin's lymphoma cells (human, UniProt P40259 29-229)
T1 construct: whole, on cells; Endogenous CD79b of the cell lines; on cells it stands in the B cell receptor complex with CD79a; also called CD79b on Ramos cells; CD79b on BJAB cells
T1 sequence (looked up): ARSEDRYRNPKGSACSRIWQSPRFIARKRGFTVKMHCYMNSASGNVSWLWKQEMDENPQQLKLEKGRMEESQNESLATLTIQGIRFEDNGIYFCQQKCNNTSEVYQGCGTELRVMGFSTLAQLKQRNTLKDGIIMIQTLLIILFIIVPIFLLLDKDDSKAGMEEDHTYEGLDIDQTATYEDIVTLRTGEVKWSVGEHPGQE
Experiment: flow cytometry on BJAB cells, goat anti-human IgG PE
Listed next: entries and their corresponding EC50 (read off the curve).

The cases that follow already have their EC50 (read off the curve) on record.
{"BINDER": "hz34F1.14 (antibody, V domains shown) VH: QVQLVQSGAEVKKPGASVKVSCKASGYSFTTYWMNWVRQAPGQGLTWMGMIDPSDSETHYNHLFKDRVTMTVDKSTSTAYMELSSLRSEDTAVYYCTRAIGYWGQGTLVTVSS VL: DVVMTQSPLSLPVTLGQPASISCKSSLSLLDSEGKTYLNWFQQRPGQSPRPLISLVSKLDSGVPDRFSGSGSGTDFTLKISRVEAEDVGVYYCWQGTHFPLTFGGGTKVEIK", "EC50 (read off the curve)": "~10 nM"}
{"BINDER": "hz11G10.9.p1 (antibody, V domains shown, Humanized monospecific anti-CD79b antibody; also called 11G10.9.01) VH: QVQLVQSGAEVKKPGASVKVSCKASGYTFTDYWVNWVRQAPGQGLEWMGMIDPSDSETHYNQMFNDRVTMTVDTSTSTVYMELSSLRSEDTAVYYCTRSNYYWGQGTLVTVSS VL: DIVMTQTPLSLSVTPGQPASISCKSSQSLLDSEGKTYLNWLLQKPGQSPQSLIYLVSKLDSGVPDRFSGSGSGTDFTLKISRVEAEDVGVYYCWQGTHFPLTFGGGTKVEIK", "EC50 (read off the curve)": "~4 nM"}

# input for lookup
Data point: polmab (antibody, human IgG1, kappa, V domains shown) VH: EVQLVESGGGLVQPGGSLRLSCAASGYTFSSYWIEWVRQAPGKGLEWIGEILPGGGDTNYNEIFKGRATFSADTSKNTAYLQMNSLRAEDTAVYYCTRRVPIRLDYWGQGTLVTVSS VL: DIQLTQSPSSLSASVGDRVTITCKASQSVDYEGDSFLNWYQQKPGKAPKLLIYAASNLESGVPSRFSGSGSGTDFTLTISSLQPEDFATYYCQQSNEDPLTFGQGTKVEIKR ; EC50 (read off the curve) = ~2 nM
